# EXPERIMENTAL_SYSTEM: acetylcholine receptor
# EXPERIMENT_NOTES: SPR, AchR immobilised on CM5 chip, peptide at 10 uM
MEASURED_METRIC: Binding affinity (RU)
Give your result in RU as a bare value.

State its Binding affinity (RU) for this binder: KRVYSK [6mer-1-440]
153

State its Binding affinity (RU) for this binder: RKSILK [6mer-1-412]
139

State its Binding affinity (RU) for this binder: REEGR [5mer-882]
18

State its Binding affinity (RU) for this binder: KIPVR [5mer-1177]
20

State its Binding affinity (RU) for this binder: KKMNK [5mer-1156]
13

State its Binding affinity (RU) for this binder: RDNGK [5mer-1194]
18

State its Binding affinity (RU) for this binder: RKLLCR [6mer-1-457]
121

State its Binding affinity (RU) for this binder: KRGYQK [6mer-1-467]
121

State its Binding affinity (RU) for this binder: RNTER [5mer-854]
21

State its Binding affinity (RU) for this binder: RKRFSR [6mer-1-448]
141

State its Binding affinity (RU) for this binder: RHSHR [5mer-871]
21

State its Binding affinity (RU) for this binder: KIWWR [5mer-1172]
25

State its Binding affinity (RU) for this binder: RKQFCR [6mer-1-413]
148

State its Binding affinity (RU) for this binder: RKQQYR [6mer-1-433]
154
